Reference source: paper PMC8155176

Biological target: CKIα (Homo sapiens, UniProt P48729)
Construct: purchased Invitrogen PV3850
Sequence (P48729 whole entry): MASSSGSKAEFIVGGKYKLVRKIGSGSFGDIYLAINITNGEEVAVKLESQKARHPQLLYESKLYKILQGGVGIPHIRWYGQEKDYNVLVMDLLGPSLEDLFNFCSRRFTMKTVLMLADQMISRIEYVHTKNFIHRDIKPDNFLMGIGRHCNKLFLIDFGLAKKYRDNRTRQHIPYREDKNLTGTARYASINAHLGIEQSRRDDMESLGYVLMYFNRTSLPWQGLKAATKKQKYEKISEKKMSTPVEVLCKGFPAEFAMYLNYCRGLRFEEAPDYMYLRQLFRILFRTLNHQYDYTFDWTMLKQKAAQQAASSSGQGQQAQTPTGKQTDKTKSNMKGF
Experiment: In vitro kinase assay (Kinase Glo), CKIα
Type: biochemical
Details: pre-irradiated with green light (530 nm), 86% cis; read-out: CKIα IC50, 530 nm
pIC50: −log10 of the molar value.

Smiles structure | Measured target | pIC50
CC(C)n1cnc2c(NCc3ccc(F)c(/N=N/c4c(F)cccc4F)c3F)ncnc21 | CKIα (Homo sapiens, UniProt P48729) | 5.09

---

Biological target: CKIα (Homo sapiens, UniProt P48729)
Construct: purchased Invitrogen PV3850
Assay: In vitro kinase assay (Kinase Glo), CKIα
Assay type: biochemical
Settings: trans vs cis-enriched (365 nm); 5 is stronger under light, the others weaker
Value type: fold difference in CKIα inhibition between dark and UV-irradiated sample (fold)

Smiles structure | Measured target | Test result
CC(C)n1cnc2c(NCc3cccc(/N=N/c4ccccc4)c3)ncnc21 | CKIα (Homo sapiens, UniProt P48729) | 4.5
COc1ccc(/N=N/c2cccc(CNc3ncnc4c3ncn4C(C)C)c2)cc1 | CKIα (Homo sapiens, UniProt P48729) | 5
Cc1nn(C)c(C)c1/N=N/c1cccc(CNc2ncnc3c2ncn3C(C)C)c1 | CKIα (Homo sapiens, UniProt P48729) | 8
